molecular target: human ERK-2 (Mitogen Activated Kinase 1) (Homo sapiens (Human), UniProt P28482); test: ERK-2 Enzymatic Assay; details: human ERK-2 enzyme 5 nM, 25 μM ATP, S/T17 peptide substrate; isomer = configuration of CR2R3
Sequence (P28482 8-360): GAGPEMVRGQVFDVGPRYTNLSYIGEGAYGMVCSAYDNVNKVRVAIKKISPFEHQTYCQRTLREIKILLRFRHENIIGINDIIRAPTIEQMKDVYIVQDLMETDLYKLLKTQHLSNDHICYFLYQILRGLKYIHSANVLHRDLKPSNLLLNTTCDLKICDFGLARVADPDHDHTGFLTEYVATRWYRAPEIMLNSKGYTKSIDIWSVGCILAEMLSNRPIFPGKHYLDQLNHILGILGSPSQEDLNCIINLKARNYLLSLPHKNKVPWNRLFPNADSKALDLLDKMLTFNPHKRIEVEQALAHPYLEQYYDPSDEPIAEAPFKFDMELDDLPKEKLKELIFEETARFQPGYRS
measure_name: IC50

Answered examples (3):
CN1C(=O)C[C@H](Cc2ccc(Cl)cc2)c2nnc3cc(-c4ccnc(Nc5ccnn5C)c4)cc1n23 [(S) I-40] | < 0.02 nM
Cn1nccc1Nc1cc(-c2cc3n4c(nnc4c2)C(Cc2ccc(F)c(Cl)c2)CO3)ccn1 (stereo not shown) [Compound I-83] | 0.111 nM
CC(C)C[C@H]1COc2cc(-c3ccnc(Nc4ccnn4C)n3)cc3nnc1n23 [(R) I-45] | < 0.02 nM

# next compound below
Return reported IC50. Input compound: Cn1nccc1Nc1cc(-c2cc3n4c(nnc4c2)C(Cc2ccccc2Cl)CCO3)ccn1 (single isomer, unassigned) [(S) I-60] < 0.02 nM

* * *

target: human ERK-2 (Mitogen Activated Kinase 1) (Homo sapiens (Human), UniProt P28482); assay: ERK-2 Enzymatic Assay; conditions: human ERK-2 enzyme 5 nM, 25 μM ATP, S/T17 peptide substrate; isomer = configuration of CR2R3
pIC50: −log10 of the molar value.
Measured pIC50, listed per entry.

Return reported pIC50. Input compound: Cn1nccc1Nc1nccc(-c2cc3n4c(nnc4c2)[C@@H](Oc2ccc(F)c(F)c2)CCO3)n1 [(S) I-111] > 10.70

Return reported pIC50. Input compound: COc1ccc(C[C@@H]2CC(=O)N(C)c3cc(-c4ccnc(Nc5ccnn5C)c4)cc4nnc2n34)c(F)c1 [(R) I-74] > 10.70

Return reported pIC50. Input compound: CCC[C@H]1CCOc2cc(-c3ccnc(Nc4ccnn4C)n3)cc3nnc1n23 [(S) I-104] > 10.70

* * *

Measured pIC50, listed per entry.
biological target: human ERK-2 (Mitogen Activated Kinase 1) (Homo sapiens (Human), UniProt P28482); assay: ERK-2 Enzymatic Assay; conditions: human ERK-2 enzyme 5 nM, 25 μM ATP, S/T17 peptide substrate; isomer = configuration of CR2R3
Recall that pIC50 is obtained by taking minus log10 of the concentration measured in molar.

CCC(C)CC1COc2cc(-c3ccnc(Nc4ccnn4C)n3)cc3nnc1n23 (single isomer, unassigned) [(S) I-52] | 7.03
COc1cccc(C[C@@H]2COc3cc(-c4ccnc(Nc5ccnn5C)c4)cc4nnc2n34)c1 [(S) I-97] | 9.10

# next molecule below
Return reported pIC50. Input molecule: Cn1nccc1Nc1nccc(-c2cc3n4c(nnc4c2)[C@H](Cn2cc(Cl)cn2)CCO3)n1 [(S) I-42] 9.88

* * *

Measured IC50, listed per entry.
molecular target: human ERK-2 (Mitogen Activated Kinase 1) (Homo sapiens (Human), UniProt P28482); test: ERK-2 Enzymatic Assay; conditions: human ERK-2 enzyme 5 nM, 25 μM ATP, S/T17 peptide substrate; isomer = configuration of CR2R3

Answered examples (2):
CCC(C)CC1COc2cc(-c3ccnc(Nc4ccnn4C)n3)cc3nnc1n23 (single isomer, unassigned) [(R) I-52] | < 0.02 nM
Cn1nccc1Nc1cc(-c2cc3n4c(nnc4c2)C(Cc2ccc(Cl)cc2)CO3)ccn1 (single isomer, unassigned) [(R) I-55] | < 0.02 nM

# next compound below
Please look at COc1ccc(C[C@H]2CNc3cc(-c4ccnc(Nc5ccnn5C)n4)cc4nnc2n34)cc1 [(S) I-11] and tell me its recorded IC50 on human ERK-2 (Mitogen Activated Kinase 1) (Homo sapiens (Human), UniProt P28482). < 0.02 nM
